Listed here are compounds together with their documented Kd.
# system_name: PaIspD (Pseudomonas aeruginosa, UniProt P57707)
# Construct: His6 (N, cleaved yes); made in house; host or cells: Escherichia coli BL21 (DE3), pET28
# Sequence (P57707 1-234): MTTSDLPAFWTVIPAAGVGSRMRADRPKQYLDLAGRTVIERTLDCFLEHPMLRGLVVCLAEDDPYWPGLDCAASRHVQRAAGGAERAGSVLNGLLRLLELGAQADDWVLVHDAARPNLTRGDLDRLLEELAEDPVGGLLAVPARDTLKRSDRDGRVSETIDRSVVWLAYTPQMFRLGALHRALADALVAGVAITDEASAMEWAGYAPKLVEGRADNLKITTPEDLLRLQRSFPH
# assay_protocol: Microscale thermophoresis (MST) with dyed PaIspD
# Type: binding
# experimental_context: MST Kd, n=2, mean±SD; HEPES 50 mM, MgCl2 5 mM, Tween 0.05%, pH 7.6

# compound, system_name, Kd, µM
measured = [
    ("CCC(CC)C(=O)N(C)C1c2cccnc2C(=O)N1C (stereo not shown) [Compound 9]", "PaIspD (Pseudomonas aeruginosa, UniProt P57707)", 536),
    ("O=C1c2ncccc2CN1CCc1c[nH]c2ccccc12 [Compound 6]", "PaIspD (Pseudomonas aeruginosa, UniProt P57707)", 208),
    ("O=C1c2ncccc2CN1CCN1CCOCC1 [Compound 5]", "PaIspD (Pseudomonas aeruginosa, UniProt P57707)", 491),
    ("CN1CCC(N2Cc3cccnc3C2=O)CC1 [Compound 3]", "PaIspD (Pseudomonas aeruginosa, UniProt P57707)", 186),
]

----------
Listed here are compounds together with their documented Kd.
# system_name: PaIspD (Pseudomonas aeruginosa, UniProt P57707)
# Construct: His6 (N, cleaved yes); made in house; host or cells: Escherichia coli BL21 (DE3), pET28
# assay_protocol: Microscale thermophoresis (MST) with dyed PaIspD
# Type: binding
# experimental_context: MST Kd, n=2, mean±SD; HEPES 50 mM, MgCl2 5 mM, Tween 0.05%, pH 7.6

# compound, Kd [µM]
records = [
    ("CN1C(=O)c2ncccc2C1N(C)C(=O)N1CCOCC1 (centres unmarked) [Compound 12]", 239),
    ("O=C1c2ncccc2CN1Cc1ccccc1 [Compound 4]", 133),
    ("CN(C(=O)c1ccncc1)C1c2cccnc2C(=O)N1C (centres unmarked) [Compound 10]", 209),
    ("COC(=O)N(C)C1c2cccnc2C(=O)N1C (centres unmarked) [Compound 7]", 454),
    ("CN(C(=O)c1ccon1)C1c2cccnc2C(=O)N1C (centres unmarked) [Compound 11]", 502),
]
